measured.target: Rap guanine nucleotide exchange factor 3 (Homo sapiens) (UniProt O95398)
Sequence (O95398 whole entry, looked up): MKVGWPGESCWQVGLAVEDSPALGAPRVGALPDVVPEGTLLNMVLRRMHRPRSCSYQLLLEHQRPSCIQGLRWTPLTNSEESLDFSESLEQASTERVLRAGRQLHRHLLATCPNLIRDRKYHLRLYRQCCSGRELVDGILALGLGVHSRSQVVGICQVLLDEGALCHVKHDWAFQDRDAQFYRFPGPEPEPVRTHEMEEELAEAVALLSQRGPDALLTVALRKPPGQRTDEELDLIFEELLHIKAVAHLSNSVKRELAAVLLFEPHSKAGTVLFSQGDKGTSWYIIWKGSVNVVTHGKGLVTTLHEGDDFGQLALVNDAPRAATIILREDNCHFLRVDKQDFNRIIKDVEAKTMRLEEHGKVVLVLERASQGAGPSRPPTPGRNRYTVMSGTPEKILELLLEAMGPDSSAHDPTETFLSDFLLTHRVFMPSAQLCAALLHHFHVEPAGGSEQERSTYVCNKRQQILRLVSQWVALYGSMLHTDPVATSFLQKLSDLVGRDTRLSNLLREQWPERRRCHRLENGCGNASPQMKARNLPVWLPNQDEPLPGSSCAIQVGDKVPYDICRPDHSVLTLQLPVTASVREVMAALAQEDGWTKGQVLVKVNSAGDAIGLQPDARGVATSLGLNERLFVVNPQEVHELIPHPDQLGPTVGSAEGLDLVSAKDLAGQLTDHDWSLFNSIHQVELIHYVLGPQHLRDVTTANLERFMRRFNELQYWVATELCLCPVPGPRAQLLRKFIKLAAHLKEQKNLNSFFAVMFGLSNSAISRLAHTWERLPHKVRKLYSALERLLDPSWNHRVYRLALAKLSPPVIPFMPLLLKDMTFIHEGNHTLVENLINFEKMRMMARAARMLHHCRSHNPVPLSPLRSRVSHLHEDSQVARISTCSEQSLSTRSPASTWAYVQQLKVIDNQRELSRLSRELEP
assay.remarks: Confirmatory qHTS for agonist of cAMP-regulated guanine nucleotide exchange factor 3 (EPAC1) (AID 1645881); also: nearly all actives have a fitted effect of over 75% in size;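 as to activation: EPAC1 catalysed release of BODIPY-GDP from Rap1B seen as fluorescence loss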
condition.label: EPAC1 Rap1B BODIPY-GDP exchange fluorescence; series mostly up to 154 µM
Inconclusive results are not listed. The source made the active and inactive calls. Calls follow the shape of the dose curve; as a rule, active = well fitted activation curve with a large enough effect; inconclusive = small, poorly fitted or top-dose-only effect; inactive = no such curve, though single readings can be large or run the other way.
Please answer using one outcome listed in YES for active, NO for inactive

Input line: Called result for COc1ccc(C2CC(=O)c3ccccc3O2)cc1 (stereo not given)
Output line: NO

Input line: Further, for `Cc1ncc(CO)c2c1Oc1nc(-c3ccccc3F)nc(SCC(=O)N(C)c3ccccc3)c1C2` ?
Output line: NO

Input line: Further, for `CCCCN(CCCC)c1ccc(/C=C/c2ccnc3ccccc23)cc1` ?
Output line: NO

Input line: Further, for Cc1ccc(C)c(CN2C(=O)C(O)(c3c[nH]c4ccccc34)c3ccccc32)c1 (stereo not given) ?
Output line: NO

Input line: Further, for `CSC1=NSC2=NC(=O)/C(=C\c3coc4ccccc4c3=O)C(=N)N12` ?
Output line: YES

Input line: Further, for `O=C1NC(=S)S/C1=C\C=C\c1ccc([N+](=O)[O-])o1` ?
Output line: NO

Input line: Further, for `O=S(=O)(Nc1ccccc1N1CCCCC1)c1cccs1` ?
Output line: NO

Input line: Further, for `CCC(NC(=O)Nc1ncccc1C)(C(F)(F)F)C(F)(F)F` ?
Output line: NO

Input line: Further, for CC1CC1c1ccc(/C=C(\C#N)C(=O)Nc2ccc(Cl)cc2)o1 (stereo not given) ?
Output line: NO

Input line: Further, for `Cc1onc(-c2c(Cl)cccc2Cl)c1COC(=O)c1ccc(Cl)cc1` ?
Output line: NO

Input line: Further, for `Cc1nc(N)sc1-c1csc(Nc2ncccn2)n1` ?
Output line: NO

Input line: Further, for CC1=C(C(=O)Nc2ccccc2)C(c2ccc[nH]2)n2ncnc2N1 (stereo not given) ?
Output line: NO

Input line: Further, for `CCc1nc2c(OCc3ccc(C(F)(F)F)cc3)cccn2c1N(C)C(=O)c1ccc(C)cc1` ?
Output line: NO

Input line: Further, for `CCCC(=O)Oc1c(S(=O)(=O)c2ccc(C)cc2)c(C)nn1C(C)(C)C` ?
Output line: NO

Input line: Further, for NC(CSC(c1ccccc1)(c1ccccc1)c1cccc2ccccc12)C(=O)O (stereo not given) ?
Output line: NO

Input line: Further, for `N#C/C(=C(/O)c1ccccc1F)c1nc2cc(C(F)(F)F)ccc2s1` ?
Output line: NO

Input line: Further, for `COc1ccc(NC(=O)CSc2nc3sc4c(c3c(=O)n2-c2ccc(OC)cc2)CCN(C)C4)cc1` ?
Output line: NO

Input line: Further, for `O=C(Nc1ncccc1O)c1ccc2c(c1)OCCO2` ?
Output line: NO

Input line: Further, for `Cc1ccn2c(=O)c(NC(=O)c3ccc(Br)o3)c(C)nc2c1` ?
Output line: NO

Input line: Further, for `Cc1ccc(C)c(S(=O)(=O)N2CCN(C(=O)CCNC(=O)c3ccc(Br)cc3)CC2)c1` ?
Output line: NO

Input line: Further, for `NS(=O)(=O)c1ccc(N/N=C/c2ccccc2C(=O)O)c([N+](=O)[O-])c1` ?
Output line: NO

Input line: Further, for O=C(COc1ccc(F)cc1Br)NCC1COc2ccccc2O1 (stereo not given) ?
Output line: NO

Input line: Further, for `Cc1ccc2oc(=O)n(CCCOc3ccccc3Cl)c2c1` ?
Output line: NO

Input line: Further, for `COc1ccccc1NC(=O)Cc1ccc(-c2ccccc2)cc1` ?
Output line: NO

Input line: Further, for `CSc1ccccc1NC(=O)CN(c1ccccc1)S(=O)(=O)N(C)C` ?
Output line: NO

Input line: Further, for `Cc1cc(C)c2c(CN3CCC(C)CC3)cc(=O)oc2c1` ?
Output line: NO

Input line: Further, for `COc1ccc(NC(=O)COC(=O)CCCOc2ccc(Cl)cc2Cl)cc1Cl` ?
Output line: NO

Input line: Further, for CC1CCCCN1S(=O)(=O)c1ccc(C(=O)Nc2nnc(-c3ccccc3Cl)o2)cc1 (stereo not given) ?
Output line: NO

Input line: Further, for `O=C1/C(=C\c2cccnc2)Sc2ccccc21` ?
Output line: NO

Input line: Further, for `O=C(O)CC/C(=C/c1cccc(NC(=O)c2ccccc2Cl)c1)c1nc2ccccc2s1` ?
Output line: YES

Data origin, for the record: PubChem BioAssay (NCATS)
